Cited source for all entries: the supplement of paper PMC9170038

Overview of recorded apparent KD of MS2 coat protein for various sequences
Test system: MS2 coat protein
Assay: apparent KD of MS2 coat protein; designed switch direction (-1 OFF switch, 1 ON switch): 1; higher = weaker reporter binding
Details: input ligand: microRNA oligo, concentration not stated
The answer is to be given in nM; state only the numeric part.

Construct Sequence: AUUAUUAAUAUAGGAUAUGUAAAACAUGAGGAUCACCCAUGUGAUAUCGUGAGUAAGGAGAGAGAACAGAAGGAUAAUUUUUUU [JMF's solution 1] (Eterna round: R96, puzzle: Same State NG 2)
Experimental Target: MS2 coat protein
apparent KD of MS2 coat protein (nM): 30.9

Construct Sequence: UAGUGAUUGCAAGGAUAUGCUAGUUUUUAUUUGUGUUUGAUAACAAACAUGAGGAUCACCCAUGUGCAGAAGGUGCUAGAUAUG [JR_SSNG2_Sub079] (Eterna round: R96, puzzle: Same State NG 2)
Experimental Target: MS2 coat protein
apparent KD of MS2 coat protein (nM): 348

Kindly review the next sequence as well.
Please tell me: apparent KD of MS2 coat protein of GGAGAACAUGAGGAUCACCCAUGUGAGAGGGAUGUAGGAUAUGUGAGGAGUAAAGGAGGGACAGAAGGACAGAGAU [JR_SS!_Sub068] (Eterna round: R96, puzzle: Same State 1) , system MS2 coat protein?
30.4

----------
Overview of recorded apparent KD of MS2 coat protein for various sequences
Tested on: MS2 coat protein
Assay: apparent KD of MS2 coat protein; higher = weaker reporter binding
Details: Eterna round: R107; input ligand: tryptophan 2.4 mM
The answer is to be given in nM; state only the numeric part.

Construct Sequence: AAUCGUAAGGCGGCCGCCACUACACAUGAGGAUCACCCAUGUCUCGCGGGCUUGCGUUGGGAUAGUAGGACCGGGCCAGUAAUAA [Exclusion - Tryptophan B (Freestyle 13)]
apparent KD of MS2 coat protein [nM]: 25.1

I'd like to know its apparent KD of MS2 coat protein. The sequence in question is GAGCUGAUGUAGAGCGAAUAUUCGAGAGAUACCAGUACAGAAAUGUACCCUUGGCAGCUCAACUUUACAUGAGGAUCACCCAUGU [Ex Theophylline A 23]
14.7

I'd like to know its apparent KD of MS2 coat protein. The sequence in question is GUGUACAUGAGGAUCACCCAUGUCGAGUUACGAGGACCGGUACGGCCGCCACUCGGCGGCUCGACACGGAUAGCGGUGCGUUGCU [Exclusion - Tryptophan A]
129

I'd like to know its apparent KD of MS2 coat protein. The sequence in question is GCACCAGGUACGGAUACCAGACAUUGCCAAUUGGGUGAACAUGAGGAUCACCCAUGUUAAGUCCCUUGGCAGCCGUACCUGGUGC [ETB NP+V+V2 #6 Same Structure]
11.5

I'd like to know its apparent KD of MS2 coat protein. The sequence in question is UCGCUCUGGGUGAAUCCCAGAGAUGUGGAAGGAGCGGAGGAAACUCCAGGUAGGUCGCCAUCGAACAUGAGGAUCACCCAUGUAC [Same State - Arginine A (Freestyle 28)]
46.4

I'd like to know its apparent KD of MS2 coat protein. The sequence in question is UGACAUUGCUCAGAUACCAGACAUGAGGAUCACCCAUGUGCCAACGUACAAAUAAUAAAUGUCCCUUGGCAGCUGAGCAAUGUCU [TheoBX 15 #MS2Left #Theo2]
11.4

I'd like to know its apparent KD of MS2 coat protein. The sequence in question is GCACUACAUGAGGAUCACCCAUGUGCAGAUACCAGAGGUGUAUGCCUCCCUUGGCAGCUGCGUCGCUCUGGCAGCUUGUGGGUUG [Same State Theophylline A GF18]
81.5

----------
Overview of recorded apparent KD of MS2 coat protein for various sequences
Tested on: MS2 coat protein
Test: apparent KD of MS2 coat protein, switch OFF state (with FMN for OFF switches, without FMN for ON switches); designed switch direction (-1 OFF switch, 1 ON switch): -1; higher = weaker reporter binding
Settings: FMN input: 0 or 200 uM; Eterna round: R93 (includes R88 designs)
Give the value; after it, write the unit.

I'd like to know its apparent KD of MS2 coat protein. The sequence in question is AAAUAGCAAGGAUAUACAUGAGGAUCACCCAUGUGACCCAGGUAUGGCAUAGACUAGAGUAGAAGGUGCAAAUA [Mod 5 of Ex 3 Tesla 8 - Jieux - Exclusion 3]
114 nM

I'd like to know its apparent KD of MS2 coat protein. The sequence in question is AGAAAGUGAGGAUAUACGAAACCAGCCUAAAUGGCUGGAAAGUAGAAGGCACAUGAGGAUCACCCAUGUAAAGA [Ex4 sub 1]
43.4 nM

I'd like to know its apparent KD of MS2 coat protein. The sequence in question is CAGUACUGAGGAUAUACAUGAGGAUCACCCAUGUGGUCCAGCUAGGAAACUAGCACGUGUAGAAGGCAGUACUG [Ex3: 840]
20 nM

I'd like to know its apparent KD of MS2 coat protein. The sequence in question is AGCUAGUCAGGAUAUACGCAAACGAACGAAGCAGAGAAGGGACAUGAGGAUCACCCAUGUAGAAGGGACUAGCA [Diamond 31]
84.9 nM

I'd like to know its apparent KD of MS2 coat protein. The sequence in question is AGUCGGCGAGGAUAUACAUGAGGAUCACCCAUGUGAGAGAAAAAGGUGAGUCAGAAAAGUAGAAGGCGCUGACA [JL Lego Mod 5]
47.4 nM

----------
Tested on: MS2 coat protein
Assay: apparent KD of MS2 coat protein; designed switch direction (-1 OFF switch, 1 ON switch): -1; higher = weaker reporter binding
Details: input ligand: microRNA oligo, concentration not stated
Quantity Measured: apparent KD of MS2 coat protein (nM)
The answer is to be given in nM; state only the numeric part.

Construct Sequence: GCACGGAGUGUAGGAUAUUAGUGCGAUUAGCACUGAGAAGGACAUGAGGAUCACCCAUGUUCCUCAAUAACUCACCUUCCGUGC [Eli exng1 - 043] (Eterna round: R96, puzzle: Exclusion NG 1)
apparent KD of MS2 coat protein [nM]: 10.6

Kindly review the next sequence as well.
I'd like to know its apparent KD of MS2 coat protein. The sequence in question is AAGAGUAGAGGAUAUACGAAAAAAGAGUCGAAAGACUCGGGACAUGAGGAUCACCCAUGUAGAAGGCUACUCAA [Hyphema Seclusion Mod 62% 5] (Eterna round: R96, puzzle: Exclusion 2)
19.4

----------
Test system: MS2 coat protein
Assay: apparent KD of MS2 coat protein; designed switch direction (-1 OFF switch, 1 ON switch): 1; higher = weaker reporter binding
Conditions: input ligand: microRNA oligo, concentration not stated
Overview of recorded apparent KD of MS2 coat protein for various sequences
The answer is to be given in nM; state only the numeric part.

Solved cases below.
Construct Sequence: GACAAUCUAUCUGAGGAUAUCAUGAAAAAAACAUGAGGAUCACCCAUGUGCAGGAAAACUGCAUAUGAGAAGGCAGAUAGAUUGC [salish99_SS2_r3_012] (Eterna round: R96, puzzle: Same State 2)
Unit Of Measurement: nM
apparent KD of MS2 coat protein: 429

Construct Sequence: CUGAAAUGUCAAGGAUAUCACGUCGAUUAGACGUGAGAAGGUGAUCUGCACAUGAGGAUCACCCAUGUGUUACAUGGGAGUCAG [Brourd's SSNG1/1-A2 mod 16] (Eterna round: R96, puzzle: Same State NG 1)
Unit Of Measurement: nM
apparent KD of MS2 coat protein: 324

Construct Sequence: GUCCGUAUCACAGGAUAUCCUAGUCAUGAUCUAGGAGAAGGGUGGCCACAUGAGGAUCACCCAUGUGAAGUGCCAGAGGCACGA [MOD2 Xexeraed] (Eterna round: R96, puzzle: Same State NG 1)
Unit Of Measurement: nM
apparent KD of MS2 coat protein: 64.8

I'd like to know its apparent KD of MS2 coat protein. The sequence in question is GGAGCCGGCCUAGGAUAUUUCAUUAAAUAACAUGAGGAUCACCCAUGUAGGCCAGAAGGCCUUGGGAAGAAGGAGGUCGGCUCC [Loop Effect - U24,U28] (Eterna round: R96, puzzle: Same State NG 2)
35

----------
System: K4 kissing-loop RNA reporter;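 further: bound reporter read as fluorescence of individual clusters on recovered sequencing chips by microscopy, with normalized cluster intensities fitted with a binding model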
Test: apparent KD of K4 kissing-loop reporter; higher = weaker reporter binding
Settings: Eterna round: R107; input ligand: theophylline 20 uM
Quantity Measured: apparent KD of K4 kissing-loop reporter (nM)
The answer is to be given in nM; state only the numeric part.

Solved cases below.
Construct Sequence: UGUCAUUGGUCGGCCGCCACUUCAUGUAGAGUGAUGUUUUGUAGGACGGAUCGAAAGAUCUGUCGGAGGACCGGGACCGAUGACU [FiskerMod 16 - Jieux - Same State - Tryptophan B]
Endpoint Value: 266
//
Construct Sequence: GCUAUAGUGUUAGAUACCAGUAUCCUGCAAAGCCAUCAAAUGCAGUGAUGUUGCAUAAACUACCCUUGGCAGCUAAUUGGGCUCU [theeternabot_exclusion_KL_Theo_B_49]
Endpoint Value: 213
//
Construct Sequence: UUGUAUAGUGGAAGGAGCGCGUGGGCGCAGUGAUGUUGCGCCCGACAUCACUUCAACUUAACGCAGGUAGGUCGCCAUUGUAAUG [Arginine B (Excl) V5]
Endpoint Value: 104

I'd like to know its apparent KD of K4 kissing-loop reporter. The sequence in question is AACCUACGAUCACAAUAGUGAUUGUAGGACUAGGAUAUGCUGAAAAGCAGAAGGAGUGAUGUUCCACUCAUGAAUAACAUGAGAA [FmnAX 4 #OpenEnded #K4Late #CoaxialStacking]
324

I'd like to know its apparent KD of K4 kissing-loop reporter. The sequence in question is GCCUAGGCUCGAAAGAGCCUAGGCUUUACUCAGGAUAUCUGGAAACAGAGAAGGGAGCUACUAGUGAUGUUAGGAAUUCCCUAAG
141
